Values from PubChem BioAssay AID1259343

- ASSAY_PROTOCOL: Mycobacterium tuberculosis growth inhibition, primary screen (AID 1259343)
- CONDITION_NOTES: at 10 µM, active compounds read high
In all, about 6,200 compounds went through this assay and about 2,900 (47%) were called active. So high a share suggests a set chosen from earlier hits. This is one part of the list.

COMPOUND | inhibition, %
COC(=O)c1ccc(CN(Cc2cccc(OC)c2OC)C2CC2)o1 | 83.8
COc1ccc(CCN(Cc2ccc(C)o2)C(=O)CN(C(=O)c2ccccc2Cl)C2CC2)cc1OC | -5.97
CCOC(=O)C1(Cc2cccc(Cl)c2)CCCN(C(=O)CCC(F)(F)F)C1 (centres undefined) | -43.9
CCN(CC1COc2ccccc2O1)C(=O)NCc1sccc1C (centres undefined) | -23.5
O=S(=O)(NN=C1c2ccccc2-c2ccccc21)c1ccccc1 | -15.8
Fc1ccc(-c2c[nH]c(=S)[nH]2)cc1 | 90.2
COc1ccc(CN(C(=O)Nc2cccc(Cl)c2)C2CC2)cc1 | -5.25
CCOC(=O)C1(Cc2cccc(C(F)(F)F)c2)CCN(Cc2ccc(C#CCCO)cc2)CC1 | 51.2
CCN1CC(CN(C)C(=O)Nc2nc3ccccc3s2)Oc2ccccc21 (centres undefined) | 12.4
